Reference source for all entries: PubChem BioAssay AID1919003

# Tested on: 786-0 complex spheroids with HUVEC/MSC, growth % test/control
# Assay Overview: Anticancer human tumor 786-0 cell line growth inhibition [AhR];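 also: compound exposure lasted seven days before the read-out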
# Settings: second compound 10 µM; first compound 0.3 µM; stronger effect = lower value
Rule: viability, T/C below 10% gives Met. Equal to or above 10% gives Not met.

Use the examples below as a reference point.
1) O=C(C=Cn1cnc(-c2cc(C(F)(F)F)cc(C(F)(F)F)c2)n1)NNc1cnccn1 + CC(CO)NC(=O)c1cc(-c2ccc(Cl)cc2)nn(-c2cnn(C)c2)c1=O :: Not met
2) CCc1c2c(nc3ccc(O)cc13)-c1cc3c(c(=O)n1C2)COC(=O)[C@]3(O)CC + Cc1cncc(-c2nc(NCCc3c[nH]c4ccccc34)c3ncn(C(C)C)c3n2)c1 :: Met
3) CCc1c2c(nc3ccc(O)cc13)-c1cc3c(c(=O)n1C2)COC(=O)[C@]3(O)CC + Cc1ccccc1N=Nc1ccc(NC(=O)c2ccnn2C)c(C)c1 :: Met
4) CCN(c1cc(-c2ccc(CN3CCOCC3)cc2)cc(C(=O)NCc2c(C)cc(C)[nH]c2=O)c1C)C1CCOCC1 + Cc1cncc(-c2nc(NCCc3c[nH]c4ccccc34)c3ncn(C(C)C)c3n2)c1 :: Not met
5) Nc1ncn(C2CC(O)C(CO)S2)c(=O)n1 (stereo unspecified) + Cc1ccccc1N=Nc1ccc(NC(=O)c2ccnn2C)c(C)c1 :: Not met

Now let's try a different one.
*Q* Confirm or reject: viability, T/C of Nc1ncn(C2CC(O)C(CO)S2)c(=O)n1 (stereo unspecified) + CC(CO)NC(=O)c1cc(-c2ccc(Cl)cc2)nn(-c2cnn(C)c2)c1=O lies strictly below 10%
*A* Not met

###

# Test system: 786-0 complex spheroids with HUVEC/MSC, growth % test/control
# Assay Overview: Anticancer human tumor 786-0 cell line growth inhibition [AhR];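 also: compound exposure lasted seven days before the read-out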
# Settings: second compound 10 µM; first compound 0.000949 µM; stronger effect = lower value
Measure: viability, T/C (%)
Just the number in %, nothing appended.

1) Nc1ncn(C2CC(O)C(CO)S2)c(=O)n1 (stereo not drawn) + Cc1ccccc1N=Nc1ccc(NC(=O)c2ccnn2C)c(C)c1 :: 91.1
2) Nc1ncn(C2CC(O)C(CO)S2)c(=O)n1 (stereo not drawn) + Cc1cncc(-c2nc(NCCc3c[nH]c4ccccc34)c3ncn(C(C)C)c3n2)c1 :: 17.2

*Q* Recorded viability, T/C for CC(C)CC(NC(=O)C(Cc1ccccc1)NC(=O)c1cnccn1)B(O)O (stereo not drawn) + CC(CO)NC(=O)c1cc(-c2ccc(Cl)cc2)nn(-c2cnn(C)c2)c1=O , please?
*A* 120

###

# reported viability, T/C; entries follow
# Test system: 786-0 complex spheroids with HUVEC/MSC, growth % test/control
# Assay Overview: Anticancer human tumor 786-0 cell line growth inhibition [AhR];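 also: compound exposure lasted seven days before the read-out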
# Settings: second compound 1 µM; first compound 0.00316 µM; stronger effect = lower value
Entry rule: numbers only, all in %.

See these solved cases before continuing.
1) Cn1ncnc1C1c2n[nH]c(=O)c3cc(F)cc(c23)NC1c1ccc(F)cc1 (stereo unspecified) + Cc1cncc(-c2nc(NCCc3c[nH]c4ccccc34)c3ncn(C(C)C)c3n2)c1 :: 118
2) Cn1ncnc1C1c2n[nH]c(=O)c3cc(F)cc(c23)NC1c1ccc(F)cc1 (stereo unspecified) + Cc1ccccc1N=Nc1ccc(NC(=O)c2ccnn2C)c(C)c1 :: 108
3) CC[C@@]1(O)C(=O)OCc2c1cc1n(c2=O)Cc2cc3c(CN(C)C)c(O)ccc3nc2-1 + Cc1cncc(-c2nc(NCCc3c[nH]c4ccccc34)c3ncn(C(C)C)c3n2)c1 :: 103
4) CC1COCCN1c1cc(-c2ccnn2C)c2ccnc(-c3ccn[nH]3)c2n1 (stereo unspecified) + Cc1ccccc1N=Nc1ccc(NC(=O)c2ccnn2C)c(C)c1 :: 119
5) CC1COCCN1c1cc(-c2ccnn2C)c2ccnc(-c3ccn[nH]3)c2n1 (stereo unspecified) + Cc1cncc(-c2nc(NCCc3c[nH]c4ccccc34)c3ncn(C(C)C)c3n2)c1 :: 106

Here is the next item to consider.
*Q* What value of measured viability, T/C is listed for Nc1ncn(C2CC(O)C(CO)O2)c(=O)n1 (stereo unspecified) + CC(CO)NC(=O)c1cc(-c2ccc(Cl)cc2)nn(-c2cnn(C)c2)c1=O ?
*A* 82.4

###

# Test system: 786-0 complex spheroids with HUVEC/MSC, growth % test/control
# Assay Overview: Anticancer human tumor 786-0 cell line growth inhibition [AhR];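 also: compound exposure lasted seven days before the read-out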
# Settings: second compound 0.1 µM; first compound 10 µM; stronger effect = lower value
# Source text: Multicellular complex tumor spheroid response to aryl hydrocarbon receptor antagonists in combination with a variety of drugs and investigational agents in selected tumor cell lines […] Compounds. […] If the clinical Cmax for an agent had not been determined, the highest concentration tested was 10 microM (Table 1). […]
Measure: viability, T/C (%)
// units = %; emit number, no label

# count of solved cases: 5
1. Nc1ccn(C2OC(CO)C(O)C2(F)F)c(=O)n1 (stereo not drawn) + Cc1ccccc1N=Nc1ccc(NC(=O)c2ccnn2C)c(C)c1 :: 6.66
2. CC1COCCN1c1cc(C2(S(C)(=N)=O)CC2)nc(-c2ccnc3[nH]ccc23)n1 (stereo not drawn) + Cc1cncc(-c2nc(NCCc3c[nH]c4ccccc34)c3ncn(C(C)C)c3n2)c1 :: 29.8
3. O=C(c1cc(Cc2n[nH]c(=O)c3ccccc23)ccc1F)N1CCN(C(=O)C2CC2)CC1 + Cc1cncc(-c2nc(NCCc3c[nH]c4ccccc34)c3ncn(C(C)C)c3n2)c1 :: 131
4. CC1(C)CCC(CN2CCN(c3ccc(C(=O)NS(=O)(=O)c4ccc(NCC5CCOCC5)c([N+](=O)[O-])c4)c(Oc4cnc5[nH]ccc5c4)c3)CC2)=C(c2ccc(Cl)cc2)C1 + Cc1cncc(-c2nc(NCCc3c[nH]c4ccccc34)c3ncn(C(C)C)c3n2)c1 :: 93.3
5. O=C(C=Cc1cccc(S(=O)(=O)Nc2ccccc2)c1)NO + Cc1ccccc1N=Nc1ccc(NC(=O)c2ccnn2C)c(C)c1 :: 20.9

*Q* Param item = COc1cc(Nc2ncc3c(n2)-c2ccc(Cl)cc2C(c2c(F)cccc2OC)=NC3)ccc1C(=O)O + CC(CO)NC(=O)c1cc(-c2ccc(Cl)cc2)nn(-c2cnn(C)c2)c1=O ; retrieve measured viability, T/C.
*A* 23.9

*Q* Looking for the measured viability, T/C of COc1cccc2c1C(=O)c1c(O)c3c(c(O)c1C2=O)CC(O)(C(=O)CO)CC3OC1CC(N)C(O)C(C)O1 (stereo not drawn) + Cc1cncc(-c2nc(NCCc3c[nH]c4ccccc34)c3ncn(C(C)C)c3n2)c1 , can you help?
*A* 0.52

*Q* Looking for the measured viability, T/C of CC(C)c1c(-c2ccccc2)nc2c(C#N)c[nH]n2c1=O + Cc1cncc(-c2nc(NCCc3c[nH]c4ccccc34)c3ncn(C(C)C)c3n2)c1 , can you help?
*A* 132

###

# Tested on: 786-0 complex spheroids with HUVEC/MSC, growth % test/control
# Assay Overview: Anticancer human tumor 786-0 cell line growth inhibition [AhR];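 also: compound exposure lasted seven days before the read-out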
# Settings: second compound 3.16 µM; first compound 0.01 µM; stronger effect = lower value
Each item that follows carries a reported viability, T/C.
Output spec: scalar in %, unitless text.

*Q* State the recorded viability, T/C for this entry: CC[C@@]1(O)C(=O)OCc2c1cc1n(c2=O)Cc2cc3c(CN(C)C)c(O)ccc3nc2-1 + CC(CO)NC(=O)c1cc(-c2ccc(Cl)cc2)nn(-c2cnn(C)c2)c1=O
*A* 109

*Q* Request the reported viability, T/C associated with Cn1ncnc1C1c2n[nH]c(=O)c3cc(F)cc(c23)NC1c1ccc(F)cc1 (stereo unspecified) + Cc1cncc(-c2nc(NCCc3c[nH]c4ccccc34)c3ncn(C(C)C)c3n2)c1
*A* 75.8

*Q* I am curious: what viability, T/C value has been reported for Nc1ncn(C2CC(O)C(CO)O2)c(=O)n1 (stereo unspecified) + Cc1cncc(-c2nc(NCCc3c[nH]c4ccccc34)c3ncn(C(C)C)c3n2)c1 ?
*A* 80.4

*Q* Consider the compound shown here: Nc1ncn(C2CC(O)C(CO)O2)c(=O)n1 (stereo unspecified) + CC(CO)NC(=O)c1cc(-c2ccc(Cl)cc2)nn(-c2cnn(C)c2)c1=O What is its recorded viability, T/C?
*A* 94.1

*Q* For CC1COCCN1c1cc(-c2ccnn2C)c2ccnc(-c3ccn[nH]3)c2n1 (stereo unspecified) + Cc1cncc(-c2nc(NCCc3c[nH]c4ccccc34)c3ncn(C(C)C)c3n2)c1 , what is its reported viability, T/C?
*A* 74.9

*Q* Record request: viability, T/C value, item Cn1ncnc1C1c2n[nH]c(=O)c3cc(F)cc(c23)NC1c1ccc(F)cc1 (stereo unspecified) + Cc1ccccc1N=Nc1ccc(NC(=O)c2ccnn2C)c(C)c1
*A* 94

###

# Test system: 786-0 complex spheroids with HUVEC/MSC, growth % test/control
# Assay Overview: Anticancer human tumor 786-0 cell line growth inhibition [AhR];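 also: compound exposure lasted seven days before the read-out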
# Settings: curve of first compound; second compound 10 µM
Measured pIC50 by item
Conceptually, pIC50 converts a concentration in mol/L into minus its log10.

1) COc1cc(C2c3cc4c(cc3C(OC3OC5COC(C)OC5C(O)C3O)C3COC(=O)C23)OCO4)cc(OC)c1O (centres undefined) + CC(CO)NC(=O)c1cc(-c2ccc(Cl)cc2)nn(-c2cnn(C)c2)c1=O :: 6.59

--- query ---
*Q* # returns recorded pIC50 (system: 786-0 complex spheroids with HUVEC/MSC, growth % test/control) for NS(=O)(=O)OCC1CC(n2ccc3c(NC4CCc5ccccc54)ncnc32)CC1O (centres undefined) + CC(CO)NC(=O)c1cc(-c2ccc(Cl)cc2)nn(-c2cnn(C)c2)c1=O
*A* 6.58
